# Protocol text: Solubility in chloroform
# Assay type: physicochemical
# Condition set: organic solvent or mixture
// values below are reported solubility
// return the numeric value with its unit appended

The measured solubility associated with CC(C)CN(CC(C)C)c1cc(O)c2c(c1)OC(=O)/C2=C(/[O-])C1=C2C(O)=CC(=[N+](CC(C)C)CC(C)C)C=C2OC1=O reads 54 mg/mL

Input CCN(CC)c1cc(O)c2c(c1)OC(=O)/C2=C(/[O-])C1=C2C(O)=CC(=[N+](CC)CC)C=C2OC1=O . Output solubility: 3 mg/mL
